Reported GI50 values for the following compounds.
# Tested on: SF-295 CNS
# test-method-notes: NCI tumour cell line growth inhibition, 48 h

Examples with their reported GI50 follow.
c1ccc(-c2n(Cc3ccc4ccccc4c3)cc[n+]2Cc2ccc3ccccc3c2)cc1 : 1.26 µM
CC(C)(C)NC(=O)[C@H]1CC[C@H]2[C@@H]3CC[C@H]4NC(=O)C=C[C@]4(C)[C@H]3CC[C@]12C : > 100 µM
Clc1ccc2ncc(-c3cccc(NC4CNC4)n3)n2c1 : 3.34 µM
Cc1ccc(NC(=O)Nc2c(Cl)cccc2Cl)cn1 : 5.49 µM
O=C(Cc1csc2nc(-c3ccc(Cl)cc3)cn12)N/N=C/c1ccccc1O : 5.21 µM
CCN(CC)CCN1C(=O)C2C3C(=O)CC(C)(CC3C)C2C1=O (configuration not stated) : > 100 µM

Recorded result, CCOC(=O)/C(C#N)=C1\SS/C(=C(/C#N)C(=O)OCC)S1 , GI50: > 100 µM

Recorded result, CCCCN=C(N)c1ccc(N2CCCN(c3ccc(C(N)=NCCCC)cc3)CC2)cc1 , GI50: 6.39 µM

Recorded result, O=C1c2ccccc2C(=O)c2c1ccc1c(=O)n(-c3ccccc3C(F)(F)F)nnc21 , GI50: 2.59 µM

Recorded result, COc1cc(/C=C/C(=O)N2CCC=CC2=O)cc(OC)c1OC , GI50: 6.37 µM

Recorded result, Cc1ccc(/C=C/c2c(C(=O)/C=C/c3ccc(Cl)cc3)c(C)nc3ccccc23)cc1 , GI50: 1.74 µM

Recorded result, CC(c1ccccc1)[C@@H](C(=O)Nc1ccc(I)cc1F)N1C(=O)N[C@H](c2ccc(OC[C@H](O)CO)cc2)C1=O (some centres not stated) , GI50: > 25 µM
